assay: Cytotoxicity against human iPSC-derived neurons assessed as decrease in SNAP25 signal; type: tissue-based; details: induced pluripotent stem cell-derived neuron
MEASURE NAME: Activity

> print(dat)
                                   molecule   reported
1  CS(=O)(=O)SCCCCCCNC(=O)CC(CC(=O)NO)c1ccc(Cl)cc1Cl (configuration not stated)      Toxic
2  CS(=O)(=O)SCCCCCCN(O)C(=O)/C=C/c1ccc(Cl)cc1Cl  Non-Toxic
3  CS(=O)(=O)SCCCCCCCN(O)C(=O)/C=C/c1ccc(Cl)cc1Cl  Non-Toxic
4  CS(=O)(=O)SCCCCCN(O)C(=O)/C=C/c1ccc(Cl)cc1Cl  Non-Toxic
5  CS(=O)(=O)SCCCNC(=O)CC(CC(=O)NO)c1ccc(Cl)cc1Cl (configuration not stated)      Toxic
6  CS(=O)(=O)SCCCCCNC(=O)CC(CC(=O)NO)c1ccc(Cl)cc1Cl (configuration not stated)      Toxic
7  CS(=O)(=O)SCCCCNC(=O)CC(CC(=O)NO)c1ccc(Cl)cc1Cl (configuration not stated)      Toxic
